Reported Test C disease control rating is given for each of the following compounds.
- Test system: Puccinia recondita f. sp. tritici
- assayProcedure: Test C: wheat leaf rust control on wheat seedlings
- Format: in vivo
- particulars: 50 ppm, sprayed to run-off on wheat seedlings, inoculated the following day; 100 = 100% disease control, 0 = no control
propertyMeasured: Test C disease control rating (%)

compound="CC#CCNC(=O)OC(C)c1ccc(-c2noc(C(F)(F)F)n2)cc1 (stereo not drawn)" testresult=100
compound="COC(=O)c1ccc(NC(=O)OC(C)c2ccc(-c3noc(C(F)(F)F)n3)cc2)cc1 (stereo not drawn)" testresult=97
compound=C#CCCNC(=O)OCCc1ccc(-c2noc(C(F)(F)F)n2)cc1 testresult=100
compound=COC(=O)NN=Cc1ccc(-c2noc(C(F)(F)F)n2)s1 testresult=100
compound="C#CCCNC(=O)OC(C)c1ccc(-c2noc(C(F)(F)F)n2)cc1 (stereo not drawn)" testresult=100
compound=CCOC(=O)c1ccc(NC(=O)OCCCc2ccc(-c3noc(C(F)(F)F)n3)cc2)cc1 testresult=0
compound=CC#CCNC(=O)OCCCc1ccc(-c2noc(C(F)(F)F)n2)cc1 testresult=100
compound=CCOC(=O)c1ccc(CNC(=O)OCCCc2ccc(-c3noc(C(F)(F)F)n3)cc2)cc1 testresult=0
compound=O=C(Nc1cccnc1)OCCCc1ccc(-c2noc(C(F)(F)F)n2)cc1 testresult=100
